target: SP9030 (human leukotriene receptor, SEQ ID NO: 2) (Homo sapiens, UniProt Q9NPC1); construct: The ORF of SP9030 was cloned in the expression vector pCR3.1 (pCR3.1-SP9030); expressed in transfected cells; host or cells: COS-7 cells (membranes); assay: Radioligand competition assay using ^3H-LTB4 as the label on membranes of COS-7 cells transfected with SP9030 cDNA; format: binding; details: summary statement
Sequence (Q9NPC1 whole entry): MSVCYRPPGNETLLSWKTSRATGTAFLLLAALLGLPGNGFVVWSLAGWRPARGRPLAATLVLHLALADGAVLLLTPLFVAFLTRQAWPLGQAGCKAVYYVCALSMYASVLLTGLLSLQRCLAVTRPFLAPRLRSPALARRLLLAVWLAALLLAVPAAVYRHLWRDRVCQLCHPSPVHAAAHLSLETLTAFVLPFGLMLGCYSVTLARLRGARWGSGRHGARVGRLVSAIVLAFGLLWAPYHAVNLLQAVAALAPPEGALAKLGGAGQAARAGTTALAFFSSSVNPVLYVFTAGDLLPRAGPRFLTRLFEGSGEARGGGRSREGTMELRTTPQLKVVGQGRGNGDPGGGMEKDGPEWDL
Measure name: Affinity of the receptor for the ligand (in words)

>>> result_value("CCCCC[C@H](O)/C=C/C=C\\C=C\\C=C\\[C@@H](O)[C@@H](O)CCCC(=O)O")
"high affinity"
>>> result_value("CC/C=C\\C/C=C\\C[C@@H](O)/C=C/C=C/C=C\\[C@@H](O)CCCC(=O)O")
"high affinity"
>>> result_value("CCCCC/C=C\\C[C@@H](O)/C=C/C=C/C=C\\[C@@H](O)CCCC(=O)O")
"high affinity"
>>> result_value("CCCCC[C@H](O)/C=C/C=C\\C/C=C\\C/C=C\\CCCC(=O)O")
"high affinity"
